# OD450 nm per record follows
Target: T1, polypeptide GC3pep (human)
T1 construct: also called membrane proximal polypeptide GC3pep
T1 peptide: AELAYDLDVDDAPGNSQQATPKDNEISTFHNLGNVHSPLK
Assay: ELISA, GC3pep coated, antibody 100 nM;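 note: detection with an HRP-conjugated secondary antibody and TMB substrate, color reaction stopped with HCl before absorbance reading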
Entry rule: numbers only, all in OD450 nm.

Answered examples (2):
INSERT INTO measurements (binder, quantity_name, meas_value) VALUES
  ('F4.26.1 (antibody, human IgG1, kappa, V domains shown, human-murine chimeric antibody) VH: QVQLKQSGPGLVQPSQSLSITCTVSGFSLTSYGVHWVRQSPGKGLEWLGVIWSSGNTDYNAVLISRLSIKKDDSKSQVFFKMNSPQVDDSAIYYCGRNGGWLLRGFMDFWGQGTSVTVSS VL: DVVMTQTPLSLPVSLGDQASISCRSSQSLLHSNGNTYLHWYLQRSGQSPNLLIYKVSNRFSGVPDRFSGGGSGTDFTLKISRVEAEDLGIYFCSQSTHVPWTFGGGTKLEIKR', 'OD450 nm', 0.12),
  ('F2.92.1 (antibody, human IgG1, kappa, V domains shown, human-murine chimeric antibody) VH: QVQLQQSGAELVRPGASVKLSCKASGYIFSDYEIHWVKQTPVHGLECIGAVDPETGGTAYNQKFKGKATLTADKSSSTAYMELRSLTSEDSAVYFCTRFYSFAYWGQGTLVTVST VL: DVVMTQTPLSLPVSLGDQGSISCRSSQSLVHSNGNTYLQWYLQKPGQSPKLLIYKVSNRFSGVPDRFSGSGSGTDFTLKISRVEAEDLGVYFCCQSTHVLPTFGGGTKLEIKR', 'OD450 nm', 2.41);

// returns reported OD450 nm for input F4.21.16 (antibody, human IgG1, kappa, V domains shown, human-murine chimeric antibody) VH: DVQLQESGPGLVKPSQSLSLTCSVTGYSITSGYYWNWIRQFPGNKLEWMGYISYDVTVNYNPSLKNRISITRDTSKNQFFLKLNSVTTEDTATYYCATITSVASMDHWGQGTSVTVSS VL: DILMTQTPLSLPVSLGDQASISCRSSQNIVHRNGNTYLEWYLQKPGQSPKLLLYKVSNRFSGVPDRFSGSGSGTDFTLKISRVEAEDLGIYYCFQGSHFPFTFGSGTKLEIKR
0.08
